Species: Homo sapiens
Experiment: To identify inhibition of the IFN signalling (Jak-Stat) pathway via expression of an eGFP reporter gene under the control of an IFN-stimulated response element (ISRE) containing MxA promoter.
Format: functional
Design: scale not given: direction of the effect not stated beside the values
Settings: 30 µM
Below, each of the compounds is paired with its reported Percent Effect value.
Give the number; % is assumed, so skip it.

1) Cc1ccc(C(=O)NCC2(O)CCOCC2)cc1Br : 19
2) CN1C(=O)C(c2ccccc2)CC12CCN(CCOCCO)CC2 (configuration not stated) : 15.2
3) Cc1noc(C)c1C(=O)NCC(O)c1ccc(F)cc1F (configuration not stated) : 10.6
4) O=C(c1ccc2c(c1)CCC2)N1C[C@@H](CN2CCOCC2)[C@@H](CO)C1 : 0.733

Ask: What value of measured Percent Effect is listed for CN1CC2(COCCN(C(=O)c3ccco3)C2)OCC1=O (configuration not stated) ?
Result: -7.28

Ask: // repeat for CC(NC(=O)Cn1cccn1)c1ccc2c(c1)OCCCO2 (configuration not stated) and report
Result: 32.9

Ask: Same lookup for CCc1ccccc1NC(=O)N1CCn2cnc(COC)c2C1 , please.
Result: 17.8

Ask: What do you get for Cn1c(C2CC2)nc2c1CCN(CCOc1ccc(C#N)cc1)C2 ?
Result: -24.9

###

Measured Percent Effect by item
Target: Ubiquitin-activating enzyme e1, putative (Leishmania donovani (strain BPK282A1)) (UniProt E9BSI1)
Sequence (E9BSI1 as listed by the source): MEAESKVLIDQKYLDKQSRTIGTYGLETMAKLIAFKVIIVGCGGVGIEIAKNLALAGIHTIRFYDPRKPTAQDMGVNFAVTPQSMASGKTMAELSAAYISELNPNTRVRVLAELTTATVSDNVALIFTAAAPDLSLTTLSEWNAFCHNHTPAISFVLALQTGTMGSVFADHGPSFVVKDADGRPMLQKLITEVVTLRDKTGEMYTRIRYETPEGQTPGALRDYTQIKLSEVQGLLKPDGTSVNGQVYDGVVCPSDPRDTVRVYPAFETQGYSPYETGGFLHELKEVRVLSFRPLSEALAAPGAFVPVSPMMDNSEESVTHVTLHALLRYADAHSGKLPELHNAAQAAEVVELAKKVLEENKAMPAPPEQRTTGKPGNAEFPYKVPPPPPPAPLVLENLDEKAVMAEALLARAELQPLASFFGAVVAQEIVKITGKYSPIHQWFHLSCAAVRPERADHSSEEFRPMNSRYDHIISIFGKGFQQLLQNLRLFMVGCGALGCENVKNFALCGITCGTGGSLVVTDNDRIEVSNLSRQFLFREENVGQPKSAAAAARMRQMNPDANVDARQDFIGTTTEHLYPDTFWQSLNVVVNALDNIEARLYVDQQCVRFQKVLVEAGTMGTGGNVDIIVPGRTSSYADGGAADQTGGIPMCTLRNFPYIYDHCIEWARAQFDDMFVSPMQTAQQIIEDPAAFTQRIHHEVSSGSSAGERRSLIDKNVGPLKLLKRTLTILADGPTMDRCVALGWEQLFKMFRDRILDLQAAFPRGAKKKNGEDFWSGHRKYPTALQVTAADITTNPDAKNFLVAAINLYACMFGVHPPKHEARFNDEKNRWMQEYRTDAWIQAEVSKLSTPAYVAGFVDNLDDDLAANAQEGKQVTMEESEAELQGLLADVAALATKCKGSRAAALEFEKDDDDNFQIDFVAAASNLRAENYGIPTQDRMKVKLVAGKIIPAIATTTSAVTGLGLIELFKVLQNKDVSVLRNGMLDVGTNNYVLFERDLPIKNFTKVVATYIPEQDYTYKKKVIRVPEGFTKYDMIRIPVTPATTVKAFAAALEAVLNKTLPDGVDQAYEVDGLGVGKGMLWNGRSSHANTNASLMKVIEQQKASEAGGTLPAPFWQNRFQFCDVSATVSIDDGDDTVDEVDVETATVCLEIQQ
Assay: Leishmania donovani Ubiquitin Activating Enzyme (LdE1)
Type: functional
Design: scale not given: direction of the effect not stated beside the values
Conditions: 30 µM
Potency and affinity values are given separately.
Report the figure in % without appending any unit label.

Ask: Given CCC(CC)c1cc(CNC(=O)N2CCOC(C)C2)on1 (centres undefined) , state its recorded Percent Effect.
Result: -2.7

Ask: Entry CC(C)c1noc(C(C)N2CCN(Cc3ccsc3)CC2)n1 (centres undefined) please
Result: 7.89

Ask: Quick one: CC(C)Nc1nc(N2CCCC2)nc2c1CN(C(C)C)CC2
Result: -2.67

Ask: Same lookup for CC(C)Oc1cccc(C(O)CNC(=O)CCc2ccncc2)c1 (centres undefined) , please.
Result: -5.48

Ask: Input CCn1cc2c(n1)CN(Cc1ccncc1)CC2COCC1CC1 (centres undefined)
Result: 10.7

Ask: Also, COC(=O)c1ccoc1COC(=O)CCc1ccc(OC)c(OC)c1 please.
Result: -5.26

Ask: Also, O=C(Cn1cc(C(=O)O)ccc1=O)Nc1ccc(Cl)cc1F please.
Result: 20

Ask: Please give the result for CCN(CC)C(=O)CCn1ncc2c(Cl)cccc21 too.
Result: 1.33

###

Target: Protein translocase subunit SecA (Escherichia coli (strain K12)) (UniProt P10408)
Sequence (P10408 whole entry): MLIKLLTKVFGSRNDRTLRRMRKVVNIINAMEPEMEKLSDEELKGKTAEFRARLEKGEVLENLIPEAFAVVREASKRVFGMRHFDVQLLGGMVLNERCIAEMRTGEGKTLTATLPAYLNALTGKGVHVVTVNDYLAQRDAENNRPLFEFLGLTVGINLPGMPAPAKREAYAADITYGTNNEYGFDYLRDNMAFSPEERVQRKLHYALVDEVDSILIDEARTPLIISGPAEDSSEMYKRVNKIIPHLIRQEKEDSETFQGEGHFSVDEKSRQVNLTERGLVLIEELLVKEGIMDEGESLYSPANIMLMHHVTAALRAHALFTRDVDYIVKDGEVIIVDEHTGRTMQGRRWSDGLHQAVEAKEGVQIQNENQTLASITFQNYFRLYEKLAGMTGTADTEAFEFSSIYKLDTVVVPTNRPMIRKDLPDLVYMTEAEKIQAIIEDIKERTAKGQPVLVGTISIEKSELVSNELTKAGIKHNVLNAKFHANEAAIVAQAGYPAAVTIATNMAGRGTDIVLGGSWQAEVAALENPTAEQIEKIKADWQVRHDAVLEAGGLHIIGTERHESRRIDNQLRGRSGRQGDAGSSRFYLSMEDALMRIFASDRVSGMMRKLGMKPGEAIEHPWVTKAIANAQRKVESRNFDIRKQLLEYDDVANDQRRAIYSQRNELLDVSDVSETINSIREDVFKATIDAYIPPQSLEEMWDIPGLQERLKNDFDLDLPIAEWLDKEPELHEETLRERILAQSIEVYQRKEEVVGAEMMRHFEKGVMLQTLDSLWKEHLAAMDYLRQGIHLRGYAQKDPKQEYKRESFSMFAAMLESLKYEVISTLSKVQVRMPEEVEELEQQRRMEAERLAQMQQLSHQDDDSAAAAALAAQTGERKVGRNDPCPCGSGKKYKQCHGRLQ
Experiment: Assay to Identify E. coli SecA ATPase Inhibitors
Format: functional
Set-up: scale not given: direction of the effect not stated beside the values
Details: 30 µM
Potency and affinity values are given separately.
Listed molecules paired with reported Percent Effect
Entry rule: numbers only, all in %.

1) COc1cc(C)nc(N2CCN(Cc3nccn3C)CC2)n1 : -2.16

Ask: Please look up its Percent Effect: Cc1cc(CN2CCN(c3ccc4nncn4n3)C(C)C2)no1 (stereo unspecified)
Result: -6.67

Ask: // next record CCOCCn1nc(C)cc1C(=O)N1CCN(C(C)C)C(CC)C1 (stereo unspecified)
Result: -4.36

Ask: Note, next up: O=C(O)C1(Cc2cc(-c3cccc(F)c3)no2)CCOCC1
Result: -3.27

Ask: Consider next the molecule CC(C)(C)NC(=O)NC(=O)CNC(C)(C)c1ccc2c(c1)OCCO2 in the same way.
Result: -5.89

Ask: Next up: COc1cccc(OCC2CCCN(C(=O)c3cnc(C)nc3O)C2)c1 (stereo unspecified)
Result: 0.517

Attribution: ChEMBL document CHEMBL3988442
